test system: U2OS; experiment: cell viability relative to DMSO; higher = less toxic; conditions: 72 h; 1000 nM
Recorded measurements of cell viability, one per entry
Write the number in % without appending the unit.

[[record]]
molecule = "O=c1[nH]c2ccccc2n1CCCN1CCN(C(c2ccccc2)c2ccccc2)CC1 [oxatomide]"
unit_label = "%"
number = 97.1

[[record]]
molecule = "O=C(c1ccc(OCCCc2c[nH]cn2)cc1)C1CC1"
unit_label = "%"
number = 95.8

[[record]]
molecule = "CC(=O)Oc1cc(C(F)(F)F)ccc1C(=O)O"
unit_label = "%"
number = 97.9

[[record]]
molecule = "CN[C@@H](C)C(=O)N[C@H](C(=O)N1CCC[C@H]1C(=O)N[C@H]1c2ccccc2C[C@H]1OCC#CC#CCO[C@@H]1Cc2ccccc2[C@@H]1NC(=O)[C@@H]1CCCN1C(=O)[C@@H](NC(=O)[C@H](C)NC)C1CCCCC1)C1CCCCC1"
unit_label = "%"
number = 101


Could you now consider this next molecule?
Incoming: Name the reported cell viability value associated with the molecule CCOc1ccc2nc3cc(N)ccc3c(N)c2c1 [ethacridine-lactate-monohydrate]
Outgoing: 105

* * *

system: U2OS; experiment: cell viability relative to DMSO; higher = less toxic; details: 72 h; 100 nM
MEASUREMENT_KIND: cell viability (%)
Write the number in % without appending the unit.

Some entries whose results are on file:
[[record]]
compound = "COc1ccc(Cl)c(Nc2ncnc3cc(OCC4CCN(C)CC4)c(OC)cc23)c1"
number = 103

[[record]]
compound = "CC(C)(C)NCc1cc(Nc2ccnc3cc(Cl)ccc23)c2c(c1O)CCCC2 [naphthoquine-phosphate]"
number = 103

[[record]]
compound = "CCC(C)(C)C(=O)C(=O)N1CCC[C@H]1C(=O)OCCCc1cccnc1"
number = 91.7

[[record]]
compound = "CCC(CC)O[C@@H]1C=C(C(=O)O)C[C@H](N)[C@H]1NC(C)=O [oseltamivir-carboxylate]"
number = 97.2

[[record]]
compound = "Cc1nccc2c1[nH]c1ccccc12"
number = 100


Could you now consider this next compound?
Incoming: Name the reported cell viability value associated with the compound `CO[C@H]1CC[C@@H](C(=O)c2ccc3nc4c(cc3c2)CCCO4)CC1`
Outgoing: 104

* * *

system: U2OS; assay: cell viability relative to DMSO; higher = less toxic; details: 72 h; 1 nM
Recorded measurements of cell viability, one per entry
Write the number in % without appending the unit.

[[record]]
compound = "O=C(NCC1(N2CCN(c3ccccc3)CC2)CCOCC1)c1cccnc1Sc1ccccc1"
tested_on = "U2OS"
number = 96.1

[[record]]
compound = "CC1(C)OC(=O)NC1=O [dimethadione]"
tested_on = "U2OS"
number = 101

[[record]]
compound = "O=C1c2ccccc2C(=O)C1c1ccccc1 [phenindione]"
tested_on = "U2OS"
number = 105


Incoming: Name the reported cell viability value associated with the compound `COc1cc(N)c(Cl)cc1C(=O)OCCCN1CCCCC1`
Outgoing: 101

Incoming: Name the reported cell viability value associated with the compound `O=C(NO)c1cnc(N2CCN(S(=O)(=O)c3ccc4ccccc4c3)CC2)nc1`
Outgoing: 97.9

* * *

Recorded measurements of drug sensitivity score, one per entry
test system: U2OS; assay: drug sensitivity score (DSS) for viability; higher = more toxic; extreme values may be limits of the assay; conditions: 72 h
// no unit, no text: just the number

Some entries whose results are on file:
[[record]]
chemical_smiles = "CCN(CC)Cc1ccc2cc(COC(=O)Nc3ccc(C(=O)NO)cc3)ccc2c1"
number = 14.3

[[record]]
chemical_smiles = "COc1cc(N)c(Cl)cc1C(=O)OCCCN1CCCCC1"
number = 0

[[record]]
chemical_smiles = "CO/N=C1/C[C@@H](C(=O)NC[C@@H](O)c2ccccc2)N(C(=O)c2ccc(-c3ccccc3C)cc2)C1"
number = 0

[[record]]
chemical_smiles = "CC1=C(/C=C/C(C)=C/C=C/C(C)=C/C=C/C=C(C)/C=C/C=C(C)/C=C/C2=C(C)CCCC2(C)C)C(C)(C)CCC1"
number = 0


Could you now consider this next compound?
Incoming: Name the reported drug sensitivity score value associated with the compound `CCC(C)(C)C(=O)C(=O)N1CCC[C@H]1C(=O)OCCCc1cccnc1`
Outgoing: 0

Cited source: the supplement of paper PMC13380429
